- TARGET: FimH (Escherichia coli, UniProt Q1R2J4)
- Construct: endogenous in cells; host or cells: E. coli UTI89 (whole bacteria)
- ASSAY NOTES: Hemagglutination inhibition (HAI) assay with UTI89 bacteria and guinea pig red blood cells; also: ranges in brackets are in nM
- Assay type: cell-based
- MEASUREMENT SETUP: HAI titer (EC>90): concentration reducing bacterial agglutination of guinea pig red blood cells by greater than 90%
REPORTED PROPERTY: HAI

Take a look at these entries with their results.
C[C@H](c1ccc(-c2cc(C(F)(F)F)ccn2)cc1C(F)(F)F)[C@H]1O[C@H](CO)[C@@H](O)[C@H](O)[C@@H]1O [Example 32] ... “+++” (50-200)
Cc1cc(-c2ccc(C(F)(F)F)cn2)ccc1[C@@H](C)[C@H]1O[C@H](CO)[C@@H](O)[C@H](O)[C@@H]1O [Example 27] ... “+++” (50-200)
Cc1cc(-c2cc(F)c(Cl)c(F)c2)ccc1[C@@H](CCO)[C@H]1O[C@H](CO)[C@@H](O)[C@H](O)[C@@H]1O [Example 14] ... “++++” (<50)
C=C[C@H](c1ccc(-c2cc(F)c3nccnc3c2)cc1C)[C@H]1O[C@H](CO)[C@@H](O)[C@H](O)[C@@H]1O [Example 15] ... “++++” (<50)

Now take the following molecule into account.
// returns reported HAI for input Cc1cc(-c2cncc(C(F)(F)F)c2)ccc1[C@@H](C)[C@H]1O[C@H](CO)[C@@H](O)[C@H](O)[C@@H]1O [Example 4] “++++” (<50)

All figures here come from patent US12297223B2.
